Source listed as the supplement of paper PMC6470124.

method: absolute recovery over vacuum-assisted evaporative concentration; higher = better recovery
measurement conditions: wastewater effluent; enrichment method: VEC

compound	result unit	absolute recovery
CCCc1nc2c(C)cc(-c3nc4ccccc4n3C)cc2n1Cc1ccc(-c2ccccc2C(=O)[O-])cc1	%	86.1
CC1(C)CCC(Cc2ccc(Cl)cc2)C1(O)Cn1cncn1 (centres undefined)	%	100
CCCCCCCCn1sc(Cl)c(Cl)c1=O	%	19.3
CC(C)(C)[NH2+]CC(O)COc1nsnc1N1CCOCC1 (centres undefined)	%	106
CC(=O)Nc1c(I)c(NC(C)=O)c(I)c(C(=O)[O-])c1I [Diatrizoate (=Amidotrizoic-acid)]	%	100
COc1c(Cl)ccc(Cl)c1C(=O)[O-]	%	104
CC(=O)N(CC(O)CO)c1c(I)c(C(=O)NCC(O)CO)c(I)c(C(=O)NCC(O)CO)c1I (centres undefined) [Iohexol]	%	102
CCC(C(N)=O)N1CCCC1=O (centres undefined)	%	105
NC(=O)N1c2ccccc2C2OC2c2ccccc21 (centres undefined) [Carbamazepin-10-11-epoxid]	%	105
C[NH2+]CCC(c1ccccc1)c1ccccn1 (centres undefined)	%	106
[O-][n+]1nc(-n2ccnc2)nc2ccc(Cl)cc21 [Triazoxide]	%	105
CC(C)N(C(=O)CS(=O)(=O)[O-])c1ccc(F)cc1	%	112
COc1cccc(C2(O)CCCCC2C[NH+](C)C)c1 (centres undefined)	%	82.8
COc1ccc(NC(=O)N(C)C)cc1Cl	%	104
Nc1ccc(C=Cc2ccc(N)cc2S(=O)(=O)[O-])c(S(=O)(=O)[O-])c1	%	30
C[NH+]=CNc1ccc(C)cc1C	%	76.9
CC[N+]([O-])(CC)CC(=O)Nc1c(C)cccc1C [Lidocaine-N-Oxide]	%	102
CS(=O)(=O)c1ccc(C(=O)[C-]2C(=O)CCCC2=O)c(Cl)c1COCC(F)(F)F	%	104
Cc1cc(Cl)ccc1OCCCC(=O)[O-]	%	103
Cc1c(N)c(=O)n(-c2ccccc2)n1C [4-Aminopyrin (=4-Aminoantipyrin, 4-AA)]	%	84.1
CC1(C)CON(Cc2ccccc2Cl)C1=O	%	80.3
CCC[NH+](CC)CC1COC2(CCC(C(C)(C)C)CC2)O1 (centres undefined)	%	91.4
Nc1nc(=O)c2ncn(CCC(CO)CO)c2[nH]1	%	97.1
COC(=O)c1csc(C)c1S(=O)(=O)[N-]C(=O)n1nc(OC)n(C)c1=O	%	110
